Tested on: HCC-2998 colon
Assay: NCI-60 one-dose screen, 48 h
Conditions: 10 µM unless noted
Protocol: Growth inhibition of the HCC-2998 human tumor cell line is measured as a screen for anti-cancer activity. Cells are grown in 96 well plates and exposed to the test compound for 48 hours. Compounds are tested at a single concentration, which is 10^-5 M for most compounds. The reported endpoint is percent growth (GI% or GIPRCNT), where numbers from 0 - 100% represent growth inhibition, and numbers from -100% - 0 represent cell death. For example, a value of 40 represents 60% growth inhibition. […]
About 83,000 compounds went through this panel and 20% of them were active in at least one assay; those are over-represented in the sample as a whole. Activity calls are given as the source filed them. The calls were made as follows: active = growth percent below 10; inactive = the rest.
Choose one outcome from this list and give only that: active, inactive

Solved entries (count: 10):
| Compound | Qualitative label |
| --- | --- |
| Cc1[nH]c(-c2nc3ccccc3[nH]2)c(C)c1C(=O)N1CCOCC1 | inactive |
| COc1cc(C2CC(=O)Nc3n[nH]c(-c4ccccc4)c32)cc(OC)c1OC (configuration not stated) | inactive |
| COc1cc(C2CC(c3ccc(Nc4nc(Nc5ccc(F)cc5)nc(Nc5ccc(Cl)cc5)n4)cc3)=NN2C(C)=O)cc(OC)c1OC (configuration not stated) | inactive |
| Cc1cnc(Nc2ccc(N3CCN(C)CC3)cc2)nc1Nc1ccc(Cl)c(NS(=O)(=O)C(C)(C)C)c1 | active |
| C=CCOc1cccc(/C=C2\SC(=Nc3ccc(O)cc3)NC2=O)c1 | inactive |
| C[C@@H]1CC[C@@H]2[C@@H]1[C@H](OC(=O)/C=C/c1ccccc1)[C@]1(C3CCCCC3)C[C@@H](NC(=O)CO)[C@@]2(C)O1 | inactive |
| CCCCCCNCc1cc(C(C)(C)C)cc(CNCCCCCC)c1O | active |
| CCOC(=O)c1sc(-c2ccc(OS(=O)(=O)c3ccc(C(C)(C)C)cc3)c(C=O)c2)nc1C | inactive |
| CCCn1nc(-c2ccccc2)c2c(-c3ccccc3)onc2c1=O | inactive |
| CCCCOc1nc2ccc(Cl)cc2cc1/C=C/C(=O)/C=C1/CC(c2cc3cc(Cl)ccc3nc2OCCCC)Nc2ccccc2N1 (configuration not stated) | inactive |

Field: outcome | Entry: "Cc1cc2c(F)c(Oc3ncnc(Nc4ccc(N5C[C@@H](C)N[C@@H](C)C5)cc4)c3C#N)cc(F)c2[nH]1"
inactive

Field: outcome | Entry: "O=S(=O)(Cc1ccccc1)c1nc2ccccc2s1"
inactive

Field: outcome | Entry: "CN(C)c1ccc(-c2cc(-c3ccc(Nc4nc(Nc5ccccc5)nc(Nc5ccc(Cl)cc5)n4)cc3)nc(N)n2)cc1"
active

Field: outcome | Entry: O=C(/C=C/C12c3ccccc3C(c3ccccc31)C1C(=O)N(c3ccc(Cl)cc3)C(=O)C12)c1ccccn1 (configuration not stated)
active

Field: outcome | Entry: "Cc1cc(Cl)nc(N(CCCNc2ccnc3cc(Cl)ccc23)Cc2ccccn2)n1"
inactive

Field: outcome | Entry: "C[C@@H]1CC[C@@H]2[C@@H]1[C@H](OC(=O)c1ccc3ccccc3c1)[C@]1(C3CCCCC3)C[C@@H](OC(=O)CO)[C@@]2(C)O1"
inactive

Field: outcome | Entry: O=C(O)C1C[C@](O)(c2ccc(F)cc2)[C@@H](c2ccc(F)cc2)O1 (some centres not stated)
inactive

Field: outcome | Entry: "N[C@@H]1CCC[C@H]1NCCCCN1C(=O)c2cccc3cccc(c23)C1=O"
inactive

Field: outcome | Entry: "COC(=O)CCCNC(=O)C(=O)c1c(O)c(O)c(C(C)C)c2cc(C)c(-c3c(C)cc4c(C(C)C)c(O)c(O)c(C(=O)C(=O)NCCCC(=O)OC)c4c3O)c(O)c12"
inactive

Field: outcome | Entry: "CCOC(=O)c1nnn(-c2ccccc2)c1C1=CN(C)CCC1"
inactive

Field: outcome | Entry: "CN(C)CCCCNc1ccc(NCCCCN(C)C)c2c1C(=O)c1c(O)ccc(O)c1C2=O"
active

Field: outcome | Entry: "CC1=CC(=O)C(C(C)C)=CC1=Nc1cc(Br)c(O)c(Br)c1"
active

Field: outcome | Entry: "CN(C)CCOC(=O)Nc1ccc(Cl)cc1"
inactive

Values compiled from PubChem BioAssay (NCI).
